Test: NCI Yeast Anticancer Drug Screen. Data for the rad50 strain (AID 155);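 note: 0% = growth of vehicle-only cultures of the same strain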
Details: S. cerevisiae rad50 strain growth inhibition; at 50.0 µM (retest, dose inferred, filed as 5.0)
Compounds without any hit were thinned out: in the full panel of roughly 79,000, 15% have a hit. Active and inactive are the calls of the source. Cut-off read from the data, not from the text of the source: active = growth inhibition above about 70%; inactive = the rest.
Respond with a class label; see active, inactive

query: Kindly provide the recorded test outcome for the following molecule: "O=C(CCSC1=NCCCN1)c1ccc(F)cc1"
result: inactive

query: Now the molecule C=CC(C)(C)N1C(=O)C(C(C)=O)=C(O)C1Cc1c[nH]c2ccccc12 (centres undefined)
result: inactive

###

Test: NCI Yeast Anticancer Drug Screen. Data for the cln2 rad14 strain (AID 165);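 note: 0% = growth equal to vehicle treated cultures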
Details: S. cerevisiae cln2 rad14 strain, at 50.0 µM (retest, dose inferred, filed as 5.0), stronger effect = higher value
This is part of a sample that, as a whole, favours compounds with a hit. Of some 79,000 tested, about 15% had one in any assay.
quantityKind: growth inhibition (%)
Answers are plain numbers, in %.

N#CCC(=O)N/N=C(\c1ccccc1)C(c1ccccc1)C1(O)C(=O)Nc2c(Cl)ccc(Cl)c21 (stereo not given)	10
S=C1N(c2ccc(Cl)cc2)C2=C(N=Nc3ccccc3)C(=Nc3ccccc3S2)N1c1ccccn1	99

Okay, here is my list. What is growth inhibition for each of these?
1. O=C1C(CCSc2ccccc2)C(=O)N(c2ccccc2)C1c1ccccc1 (stereo not given)
2. Cc1ccc(Nc2n[nH]c(=S)s2)c(C)c1

result:
[97, 49]

Would you mind giving growth inhibition for every compound in the list below?
1. C/C1=C/C2OC(=O)C3(C)C2C(CC2(C)OC1=CC2=O)OC3(O)C(C)C (stereo not given)
2. C[N+](C)([O-])CCCNc1c2ccccc2nc2cccc([N+](=O)[O-])c12
3. O=c1[nH]c2c([N+](=O)[O-])cccc2c2ccccc12
4. Clc1nc(Cl)nc(Nc2cccc3ccccc23)n1
5. CC(=O)NC(c1nc2cc(C)c(C)cc2[nH]1)c1nc2cc(C)c(C)cc2[nH]1
6. O=C(Nc1cccs1)c1ccccc1

result:
29
96
11
95
92
-62
